# assay_procedure: Tmax in Sprague-Dawley rat measured at 2 mg/kg, iv for 0.083 to 24 hrs by LC-MS/MS analysis
# Format: ADME, organism-based
# condition_summary: in vivo, time 0.083-24 hrs
measurement_kind: Tmax (min)

compound: C=CC(=O)N1CCC(c2cc3c(Oc4ccc(NC(=O)NC5CC5)c(Cl)c4)ccnc3cc2OC)CC1
measurement_kind: Tmax
display_unit: min
data_value: 4.8
--
compound: C=CC(=O)N1CCC(c2cc3c(Oc4ccc(NC(=O)NC5CC5)c(Cl)c4)ccnc3cc2OCC)CC1
measurement_kind: Tmax
display_unit: min
data_value: 4.8

###

# assay_procedure: AUC (0 to infinity) in Sprague-Dawley rat measured at 10 mg/kg, po for 0.083 to 24 hrs by LC-MS/MS analysis
# Assay type: ADME, organism-based
# Parameters: dose 10 mg/kg, time upper 24 hrs, time lower 0.083 hrs, route po
# condition_summary: in vivo
measurement_kind: AUC(0-inf) (ng·h/mL)

A = C=CC(=O)N1CCC(c2cc3c(Oc4ccc(NC(=O)NC5CC5)c(Cl)c4)ccnc3cc2OCC)CC1
B = C=CC(=O)N1CCC(c2cc3c(Oc4ccc(NC(=O)NC5CC5)c(Cl)c4)ccnc3cc2OC)CC1
Would you mind telling me which has the lower recorded AUC(0-inf) between A and B ? To answer, give the label that identifies your chosen option.
A

###

# assay_procedure: Half life in Sprague-Dawley rat measured at 60 mg/kg, po for 0.083 to 24 hrs by LC-MS/MS analysis
# Assay type: ADME, organism-based
# condition_summary: in vivo, time 0.083-24 hrs
measurement_kind: half-life (h)
Provide the reading as a plain figure in h.

For `C=CC(=O)N1CCC(c2cc3c(Oc4ccc(NC(=O)NC5CC5)c(Cl)c4)ccnc3cc2OC)CC1` , write its half-life.
2.42

###

# assay_procedure: Microsomal stability in human liver microsomes assessed as intrinsic clearance preincubated for 10 mins followed by NADPH addition measured upto 60 mins by LC-MS/MS analysis
# Assay type: ADME, Microsome
# condition_summary: time < 70 min, read-out: CLH
measurement_kind: microsomal CLint (µL/min/mg)

1 = COc1cc2nccc(Oc3ccc(NC(=O)NC4CC4)c(Cl)c3)c2cc1C(N)=O [LENVATINIB]
2 = C=CC(=O)N1CCC(c2cc3c(Oc4ccc(NC(=O)NC5CC5)c(Cl)c4)ccnc3cc2OC)CC1
// returns 1 or 2 , whichever has the lower microsomal CLint Refer to your chosen entry by its label in the reply.
2
(2: 46.7 µL/min/mg, 1: 74.1 µL/min/mg)

###

# assay_procedure: Tmax in Sprague-Dawley rat measured at 100 mg/kg, po for 0.083 to 24 hrs by LC-MS/MS analysis
# Format: ADME, organism-based
# condition_summary: in vivo, time 0.083-24 hrs
measurement_kind: Tmax (min)
The reply should be a number in min, with the unit left off.

Determine its reported Tmax: `C=CC(=O)N1CCC(c2cc3c(Oc4ccc(NC(=O)NC5CC5)c(Cl)c4)ccnc3cc2OC)CC1`
30

###

# assay_procedure: Ionization constant, pKa of the compound in PBS buffer at pH 1.42 to 12.33 by electrochemical method
# Assay type: physicochemical
measurement_kind: pKa

compound: C=CC(=O)N1CCC(c2cc3c(Oc4ccc(NC(=O)NC5CC5)c(Cl)c4)ccnc3cc2OCC)CC1
pKa: 5.28

compound: C=CC(=O)N1CCC(c2cc3c(Oc4ccc(NC(=O)NC5CC5)c(Cl)c4)ccnc3cc2OC)CC1
pKa: 5.77

compound: COc1cc2nccc(Oc3ccc(NC(=O)NC4CC4)c(Cl)c3)c2cc1C(N)=O [LENVATINIB]
pKa: 5.27

###

# assay_procedure: C0 in Sprague-Dawley rat measured at 2 mg/kg, iv for 0.083 to 24 hrs by LC-MS/MS analysis
# Assay type: ADME, organism-based
# condition_summary: in vivo, time 0.083-24 hrs
measurement_kind: C0 (µg/mL)

compound: C=CC(=O)N1CCC(c2cc3c(Oc4ccc(NC(=O)NC5CC5)c(Cl)c4)ccnc3cc2OCC)CC1
display_unit: µg/mL
C0: 3.09
//
compound: C=CC(=O)N1CCC(c2cc3c(Oc4ccc(NC(=O)NC5CC5)c(Cl)c4)ccnc3cc2OC)CC1
display_unit: µg/mL
C0: 3.29

###

# assay_procedure: MRT (0 to t) in Sprague-Dawley rat measured at 2 mg/kg, iv for 0.083 to 24 hrs by LC-MS/MS analysis
# Type: ADME, organism-based
# condition_summary: in vivo, time 0.083-24 hrs
measurement_kind: MRT last (min)

compound: C=CC(=O)N1CCC(c2cc3c(Oc4ccc(NC(=O)NC5CC5)c(Cl)c4)ccnc3cc2OC)CC1
MRT last, min: 10.8

compound: C=CC(=O)N1CCC(c2cc3c(Oc4ccc(NC(=O)NC5CC5)c(Cl)c4)ccnc3cc2OCC)CC1
MRT last, min: 9.6

###

# target_system: Fibroblast growth factor receptor 4 (Homo sapiens, UniProt P22455)
# assay_procedure: Inhibition of FGFR4 (unknown origin) at 100 nM incubated for 10 mins followed by substrate addition measured after 60 mins by ADP-Glo luminescence assay relative to control
# condition_summary: time 70.0 min
# Sequence (P22455 22-802 limits assumed): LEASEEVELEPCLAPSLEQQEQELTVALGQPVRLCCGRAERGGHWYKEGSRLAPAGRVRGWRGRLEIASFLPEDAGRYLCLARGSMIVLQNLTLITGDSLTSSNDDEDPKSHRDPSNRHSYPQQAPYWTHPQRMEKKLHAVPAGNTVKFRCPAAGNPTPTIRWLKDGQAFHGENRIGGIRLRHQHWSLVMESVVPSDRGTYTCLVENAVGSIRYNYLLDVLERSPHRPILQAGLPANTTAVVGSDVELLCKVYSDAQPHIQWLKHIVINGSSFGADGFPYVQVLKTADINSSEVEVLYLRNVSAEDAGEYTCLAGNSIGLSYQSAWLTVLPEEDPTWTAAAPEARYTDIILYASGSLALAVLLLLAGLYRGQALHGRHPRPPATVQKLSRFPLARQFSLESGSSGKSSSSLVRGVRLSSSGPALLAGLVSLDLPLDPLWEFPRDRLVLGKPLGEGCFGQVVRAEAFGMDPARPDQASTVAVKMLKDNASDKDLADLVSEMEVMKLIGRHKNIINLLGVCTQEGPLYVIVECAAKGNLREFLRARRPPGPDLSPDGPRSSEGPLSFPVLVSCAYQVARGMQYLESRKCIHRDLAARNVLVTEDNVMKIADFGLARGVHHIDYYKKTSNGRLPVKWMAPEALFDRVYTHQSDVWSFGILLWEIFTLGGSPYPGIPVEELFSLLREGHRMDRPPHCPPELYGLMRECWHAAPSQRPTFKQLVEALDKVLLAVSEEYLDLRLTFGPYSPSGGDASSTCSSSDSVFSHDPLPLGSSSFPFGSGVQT
measurement_kind: inhibition (%)

compound: C=CC(=O)N1CCC(c2cc3c(Oc4cc5cc(C)[nH]c5cc4F)ccnc3cc2OC)CC1
inhibition [%]: 20.6

compound: C=C(F)C(=O)N1CCC(c2cc3c(Oc4ccc(NC(=O)NC5CC5)c(Cl)c4)ccnc3cc2OC)CC1
inhibition [%]: 21.6

compound: C=CC(=O)N1CCC(c2cc3c(Oc4ccc5c(C(=O)NC)cccc5c4)ccnc3cc2OC)CC1
inhibition [%]: 24

compound: COc1cc2nccc(Oc3ccc(NC(=O)NC4CC4)c(Cl)c3)c2cc1C1CCN(C(=O)C(F)(F)F)CC1
inhibition [%]: 25.6

###

# target_system: Fibroblast growth factor receptor 4 (Homo sapiens, UniProt P22455)
pIC50: −log10 of the molar value.
measurement_kind: pIC50

compound: C=CC(=O)N1CCC(c2cc3c(Oc4ccc(NC(=O)NC5CC5)c(Cl)c4)ccnc3cc2OC(C)C)CC1
pIC50: 7.77
//
compound: C=CC(=O)N1CCC(c2cc3c(Oc4ccc(NC(=O)NC5CC5)c(Cl)c4)ccnc3cc2OC)C(C)C1 (stereo unspecified)
pIC50: 8.24

1 = C=CC(=O)N1CC=C(c2cc3c(Oc4ccc(NC(=O)NC5CC5)c(Cl)c4)ccnc3cc2OC)CC1
2 = C=CC(=O)N1CCC(c2cc3c(Oc4ccc(NC(=O)NC5CC5)c(Cl)c4)ccnc3cc2OCC)CC1
Which entry shows the lesser value of pIC50 here, 1 or 2 ? # reply format: chosen label
2

###

# Test system: Hep 3B2
# assay_procedure: Antiproliferative activity against human Hep3B cells incubated for 72 hrs by Cell counting kit 8 method
# Format: functional, cell-based
measurement_kind: pIC50
pIC50 field: float, defined as -log10 of concentration (mol/L).

State pIC50 (Hep 3B2) of `C=CC(=O)N1CCC(c2cc3c(Oc4ccc5c(C(=O)NC)c(C)oc5c4)ccnc3cc2OC)CC1` .
7.39

Quote pIC50 with test system Hep 3B2 for `COc1cc2nccc(Oc3ccc(NC(=O)NC4CC4)c(Cl)c3)c2cc1C(N)=O`
6.16

Please respond with reported pIC50 (system Hep 3B2) for `C=CC(=O)N1CCC(c2cc3c(Oc4ccc(NC(=O)NC5CC5)c(Cl)c4)ccnc3cc2OCC)CC1` .
7.76

Provide the reported pIC50 (system: Hep 3B2) for C=CC(=O)N1CCC(c2cc3c(Oc4ccc(NC(=O)NC5CC5)c(Cl)c4)ccnc3cc2OC)C(C)C1 (stereo not given)
7.88

###

# assay_procedure: AUC(0 to infinity) in Sprague-Dawley rat measured at 100 mg/kg, po for 0.083 to 24 hrs by LC-MS/MS analysis
# Assay type: ADME, organism-based
# Parameters: dose 100 mg/kg, time 0.083-24 hrs, route po
# condition_summary: in vivo
measurement_kind: AUC(0-inf) (ng·h/mL)
Write the answer as a number in ng·h/mL, unit excluded.

Please report AUC(0-inf) for the following molecule: `C=CC(=O)N1CCC(c2cc3c(Oc4ccc(NC(=O)NC5CC5)c(Cl)c4)ccnc3cc2OC)CC1`
28200

###

# System: HT-29
# assay_procedure: Antiproliferative activity against human HT-29 cells incubated for 72 hrs by Cell counting kit 8 method
# Assay type: functional, cell-based
# condition_summary: HT-29, 72 h
measurement_kind: pIC50
Please express pIC50 as -log10 of the molar concentration.

Please supply the value of reported pIC50 for the item `C=CC(=O)N1CCC(c2cc3c(Oc4ccc(NC(=O)NC5CC5)c(Cl)c4)ccnc3cc2OC)CC1`
5.14

###

# assay_procedure: Cmax in Sprague-Dawley rat measured at 100 mg/kg, po for 0.083 to 24 hrs by LC-MS/MS analysis
# Type: ADME, organism-based
# Set-up: time upper 24 hrs, dose 100 mg/kg, time lower 0.083 hrs, route po
# condition_summary: in vivo
measurement_kind: Cmax (ng/mL)
All answers are understood in ng/mL, so give the number only.

Supply recorded Cmax for `C=CC(=O)N1CCC(c2cc3c(Oc4ccc(NC(=O)NC5CC5)c(Cl)c4)ccnc3cc2OC)CC1` here.
14600
